// kon lookup, one value per entry
target: T1, dog serum albumin (dog, UniProt P49822 25-608); test: SPR (Biacore 8K), albumin immobilized on CM5 chip, 25 C, 1:1 kinetic fit
T1 construct: Bought protein, immobilized on a CM5 chip by amine coupling; also called Dog SA
Give the quantity in M⁻¹ s⁻¹, number only.

BINDER	kon [M⁻¹ s⁻¹]
RLN Analog 4 (other, Single-chain fusion: VHH - (PGPQ)8 L1 - RLN2 B chain (desB1) - L2 - RLN2 A chain) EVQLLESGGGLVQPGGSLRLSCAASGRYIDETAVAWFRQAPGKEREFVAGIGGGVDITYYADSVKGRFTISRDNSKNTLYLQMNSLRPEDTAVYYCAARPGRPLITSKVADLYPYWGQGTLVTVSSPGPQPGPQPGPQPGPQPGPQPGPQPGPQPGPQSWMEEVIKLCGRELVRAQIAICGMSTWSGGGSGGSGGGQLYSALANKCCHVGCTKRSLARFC	1.4e+06

Now for a further binder.
// sample RLN Analog 11 (other, Single-chain fusion: VHH - (G4Q)5 L1 - RLN2 B chain (desB1) - L2 of thirteen residues - RLN2 A chain (desA1-4)) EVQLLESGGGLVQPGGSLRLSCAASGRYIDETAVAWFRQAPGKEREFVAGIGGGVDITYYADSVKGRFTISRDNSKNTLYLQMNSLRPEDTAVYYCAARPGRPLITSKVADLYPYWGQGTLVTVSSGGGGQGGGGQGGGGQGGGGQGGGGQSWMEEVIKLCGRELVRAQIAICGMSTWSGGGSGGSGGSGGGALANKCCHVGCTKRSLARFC , its kon was 1.4e+06
